test system: C57BL/6j mice; experiment: Sub-chronic toxicity study (10 days), plasma biochemistry; assay type: in vivo; conditions: daily i.p. 10 days, 30 mg/kg, plasma
reported.endpoint: A-G Ratio
Give only the figure.

Entry O=P(O)(O)OCC1OC(n2cnc3c(NCc4ccccc4)ncnc32)C(O)C1O (stereo not shown) [IST5] — recorded A-G Ratio = 1.9

###

Tested on: athymic nude mice
Assay: Chronic toxicity study (28 days), plasma biochemistry
Type: in vivo
Settings: i.p. 28 days, 10 mg/kg, plasma
Procedure: Forty athymic nude mice (8 weeks) (Crl:NU/NCr-Foxn1n) of either sex (20 males and 20 females) were randomized into four groups (n = 5/group) for either sex. The randomization of the mice was carried out based on their baseline body weight measured on day 0. […] The clinical chemistry parameters measured were the same as those used for the acute toxicity study.
reported.endpoint: A-G Ratio
Give the figure by itself; no unit, no explanation.

The recorded A-G Ratio with athymic nude mice for O=P(O)(O)OCC1OC(n2cnc3c(NCc4ccccc4)ncnc32)C(O)C1O (stereo not shown) was 1.93
